The molecules listed here are annotated with their Activity.
System: V79
Experiment: Clonogenic survival of 97% V79 NTRoua cells in co-cultures with 3% V79 NTRpuro cells after 5 hrs by MCL assay
Assay type: functional, Cricetulus griseus
measurement_type: Activity (µM)

>>> recorded_value("NC(=O)c1cc(N(CCCl)CCBr)c([N+](=O)[O-])cc1[N+](=O)[O-]")
8.2
>>> recorded_value("O=C(NCC(O)CO)c1cc(N(CCI)CCI)c([N+](=O)[O-])cc1[N+](=O)[O-] (stereo not given)")
54
>>> recorded_value("CS(=O)(=O)OCCN(CCI)c1cc(C(N)=O)c([N+](=O)[O-])cc1[N+](=O)[O-]")
12
>>> recorded_value("CS(=O)(=O)OCCN(CCOS(C)(=O)=O)c1cc(C(N)=O)c([N+](=O)[O-])cc1[N+](=O)[O-]")
152

====

Test system: V79
Experiment: Clonogenic survival of 3% V79 NTRpuro cells in co-cultures with 97% V79 NTRoua after 5 hrs by MCL assay
Type: functional, Cricetulus griseus
Let's look at some compounds and their measured Activity.
measurement_type: Activity (µM)

>>> recorded_value("NC(=O)c1cc(N(CCOS(N)(=O)=O)CCOS(N)(=O)=O)c([N+](=O)[O-])cc1[N+](=O)[O-]")
9.5
>>> recorded_value("O=C(NCC(O)CO)c1cc(N(CCBr)CCBr)c([N+](=O)[O-])cc1[N+](=O)[O-] (stereo not given)")
18
>>> recorded_value("NC(=O)c1cc(N(CCI)CCI)c([N+](=O)[O-])cc1[N+](=O)[O-]")
1.65
>>> recorded_value("NC(=O)c1cc(N(CCBr)CCBr)c([N+](=O)[O-])cc1[N+](=O)[O-]")
3.3
>>> recorded_value("O=C(NCCCO)c1cc(N(CCBr)CCBr)c([N+](=O)[O-])cc1[N+](=O)[O-]")
3

====

System: WiDr
Assay: Antiproliferative activity against human wild type WiDr NTR-ve cells after 18 hrs
Assay type: functional, cell-based
pIC50: −log10 of the molar value.
Listed here are compounds together with their documented pIC50.
measurement_type: pIC50

>>> recorded_value("O=C(O)CCNC(=O)c1cc(N(CCBr)CCBr)c([N+](=O)[O-])cc1[N+](=O)[O-]")
4.40
>>> recorded_value("CS(=O)(=O)c1cc([N+](=O)[O-])c(N(CCCl)CCCl)cc1C(=O)NCC(O)CO (centres undefined)")
2.70
>>> recorded_value("O=C(NCCCn1ccnc1)c1cc(N(CCCl)CCCl)c([N+](=O)[O-])cc1[N+](=O)[O-]")
3.97
>>> recorded_value("O=C(NCC(O)CO)c1cc(N(CCBr)CCBr)c([N+](=O)[O-])cc1[N+](=O)[O-] (centres undefined)")
3.78
>>> recorded_value("CS(=O)(=O)OCCN(CCBr)c1cc(C(=O)NO)c([N+](=O)[O-])cc1[N+](=O)[O-]")
3.95
>>> recorded_value("O=C(O)CCNC(=O)c1cc(N(CCCl)CCCl)c([N+](=O)[O-])cc1[N+](=O)[O-]")
2.19
>>> recorded_value("O=C(NC(CO)(CO)CO)c1cc(N(CCCl)CCCl)c([N+](=O)[O-])cc1[N+](=O)[O-]")
3.15
>>> recorded_value("O=C(NCCCO)c1cc(N(CCCl)CCCl)c([N+](=O)[O-])cc1[N+](=O)[O-]")
3.29
>>> recorded_value("O=C(NCC(O)CO)c1cc(N(CCI)CCI)c([N+](=O)[O-])cc1[N+](=O)[O-] (centres undefined)")
4.19
>>> recorded_value("CS(=O)(=O)c1cc([N+](=O)[O-])c(C(N)=O)cc1N(CCBr)CCBr")
4.43
>>> recorded_value("O=C(NCCO)c1cc(N(CCI)CCI)c([N+](=O)[O-])cc1[N+](=O)[O-]")
4.55
>>> recorded_value("NC(=O)c1cc(N(CCI)CCI)c([N+](=O)[O-])cc1[N+](=O)[O-]")
4.82
>>> recorded_value("O=C(NO)c1cc(N(CCCl)CCCl)c([N+](=O)[O-])cc1[N+](=O)[O-]")
3.95
>>> recorded_value("NC(=O)c1cc(N(CCCl)CCBr)c([N+](=O)[O-])cc1[N+](=O)[O-]")
3.82
>>> recorded_value("O=C(NO)c1cc(N(CCBr)CCBr)c([N+](=O)[O-])cc1[N+](=O)[O-]")
4.35
>>> recorded_value("NC(=O)c1cc(N(CCBr)CCBr)c([N+](=O)[O-])cc1[N+](=O)[O-]")
4.40
>>> recorded_value("O=C(NOCCO)c1cc(N(CCCl)CCCl)c([N+](=O)[O-])cc1[N+](=O)[O-]")
3.05
>>> recorded_value("CS(=O)(=O)NC(=O)c1cc(N(CCCl)CCCl)c([N+](=O)[O-])cc1[N+](=O)[O-]")
2.88
>>> recorded_value("NC(=O)c1cc(N(CCCl)CCCl)c([N+](=O)[O-])cc1[N+](=O)[O-]")
3.15

====

Assay: Stability in alpha MEM at 37 degC after 24 hrs
Type: physicochemical
Details: read-out: Stability
# note: exactly 80% is not below, so it is criterion not met; use criterion met for remaining at 24 h strictly under it

>>> group_label("O=C(NO)c1cc(N(CCBr)CCBr)c([N+](=O)[O-])cc1[N+](=O)[O-]")
"criterion met"
>>> group_label("O=C(NCCCn1ccnc1)c1cc(N(CCCl)CCCl)c([N+](=O)[O-])cc1[N+](=O)[O-]")
"criterion met"
>>> group_label("O=C(NCCO)c1cc(N(CCBr)CCBr)c([N+](=O)[O-])cc1[N+](=O)[O-]")
"criterion met"
>>> group_label("O=C(NCCCO)c1cc(N(CCCl)CCCl)c([N+](=O)[O-])cc1[N+](=O)[O-]")
"criterion not met"
>>> group_label("O=C(NCC(O)CO)c1cc(N(CCCl)CCCl)c([N+](=O)[O-])cc1[N+](=O)[O-] (stereo not given)")
"criterion not met"
>>> group_label("CN(C)CCNC(=O)c1cc(N(CCCl)CCCl)c([N+](=O)[O-])cc1[N+](=O)[O-]")
"criterion not met"
>>> group_label("CS(=O)(=O)OCCN(CCBr)c1cc(C(=O)NCC(O)CO)c([N+](=O)[O-])cc1[N+](=O)[O-] (stereo not given)")
"criterion met"
>>> group_label("O=C(NO)c1cc(N(CCCl)CCCl)c([N+](=O)[O-])cc1[N+](=O)[O-]")
"criterion not met"
>>> group_label("O=C(NCCCO)c1cc(N(CCBr)CCBr)c([N+](=O)[O-])cc1[N+](=O)[O-]")
"criterion not met"
>>> group_label("NC(=O)c1cc(N(CCI)CCI)c([N+](=O)[O-])cc1[N+](=O)[O-]")
"criterion met"

====

Below, each of the compounds is paired with its reported pIC50 value.
Tested on: V79
Experiment: Antiproliferative activity against chinese hamster wild-type V79 NTR-ve cells after 18 hrs
Type: functional, cell-based
Details: Cricetulus griseus, V79, 18 h
pIC50: −log10 of the molar value.
measurement_type: pIC50

>>> recorded_value("CS(=O)(=O)c1cc([N+](=O)[O-])c(N(CCCl)CCCl)cc1C(=O)NCC(O)CO (centres undefined)")
3.07
>>> recorded_value("CS(=O)(=O)OCCN(CCBr)c1cc(C(=O)NCCO)c([N+](=O)[O-])cc1[N+](=O)[O-]")
3.20
>>> recorded_value("O=C(NCCCN1CCOCC1)c1cc(N(CCCl)CCCl)c([N+](=O)[O-])cc1[N+](=O)[O-]")
3.46
>>> recorded_value("O=C(NOCCO)c1cc(N(CCCl)CCCl)c([N+](=O)[O-])cc1[N+](=O)[O-]")
3.12
>>> recorded_value("CS(=O)(=O)OCCN(CCBr)c1cc(C(N)=O)c([N+](=O)[O-])cc1[N+](=O)[O-]")
3.88
>>> recorded_value("O=C(NC(CO)(CO)CO)c1cc(N(CCCl)CCCl)c([N+](=O)[O-])cc1[N+](=O)[O-]")
2.98
>>> recorded_value("NC(=O)c1cc(N(CCCl)CCBr)c([N+](=O)[O-])cc1[N+](=O)[O-]")
3.86
>>> recorded_value("O=C(NCCCn1ccnc1)c1cc(N(CCCl)CCCl)c([N+](=O)[O-])cc1[N+](=O)[O-]")
3.76
>>> recorded_value("O=C(NCC(O)CO)c1cc(N(CCCl)CCCl)c([N+](=O)[O-])cc1[N+](=O)[O-] (centres undefined)")
2.94

====

Tested on: V79
Experiment: Clonogenic survival of 97% V79 NTRoua cells in co-cultures with 3% V79 NTRpuro cells after 5 hrs by MCL assay
Format: functional, Cricetulus griseus
The following molecules are shown together with reported Activity values.
measurement_type: Activity (µM)

>>> recorded_value("O=C(NCC(O)CO)c1cc(N(CCCl)CCCl)c([N+](=O)[O-])cc1[N+](=O)[O-] (centres undefined)")
510
>>> recorded_value("O=C(NCCCO)c1cc(N(CCCl)CCCl)c([N+](=O)[O-])cc1[N+](=O)[O-]")
150
>>> recorded_value("O=C(NCCCO)c1cc(N(CCBr)CCBr)c([N+](=O)[O-])cc1[N+](=O)[O-]")
7
